# system: UniProt Q96SW2
assay-metric: IC50 (nM)
State just the number; it will be interpreted in nM.

Problem: Read off the recorded IC50 for Nc1cccc2c1C(=S)N(C1CCC(=O)NC1=O)C2=O (stereo not shown) [3-MP, 3-thiopomalidomide]
Solution: 190
